Target: Monoglyceride lipase (Homo sapiens) (UniProt Q99685)
Sequence (whole entry): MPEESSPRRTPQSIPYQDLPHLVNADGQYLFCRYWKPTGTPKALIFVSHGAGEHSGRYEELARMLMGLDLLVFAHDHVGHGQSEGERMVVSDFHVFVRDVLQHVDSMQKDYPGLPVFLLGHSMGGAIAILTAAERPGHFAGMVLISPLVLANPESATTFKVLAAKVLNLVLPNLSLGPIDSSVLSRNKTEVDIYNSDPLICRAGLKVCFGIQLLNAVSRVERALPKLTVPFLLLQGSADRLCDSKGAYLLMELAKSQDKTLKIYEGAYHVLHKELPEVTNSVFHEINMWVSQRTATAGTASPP
Test: Inhibition of human N-terminal histidine tagged full length MAGL expressed in Escherichia coli at 10 uM by coumarin ester substrate fluorescence assay
Active and inactive are the calls of the source. The calls are words filed in the database; no cut-off is given here.
Outcome Measure: inhibition

• CCCCCCCC/C=C\CCCCCCCC(=O)OC(CNC(=O)ON=C1CCCCC1)COC (racemic) = inactive
• COCC(CNC(=O)ON=C1CCCCC1)OC(=O)CCCc1ccc(-c2ccccc2)cc1 (racemic) = inactive
• CCCCCCCCNC(=O)OCC(COC)OC(=O)NCCCCCCCC (racemic) = inactive
• CCCCCCCC/C=C\CCCCCCCC(=O)OC(CNC(=O)CCCCCCC)COC (racemic) = inactive
• CCCCCCCCCCC[C@@H](C[C@@H]1OC(=O)[C@H]1CCCCCC)OC(=O)[C@H](CC)NC=O = 45%

###

Target: Diacylglycerol lipase-alpha (Homo sapiens)
Assay: Inhibition of human DAGLalpha expressed in HEK293T cell membrane using [14C]SAG substrate at 10 uM in presence of 0.05% Triton X-100 by scintillation counting based radio-TLC assay
Type: cell membranes
Settings: HEK-293T
Each entry below carries its recorded inhibition.
Outcome Measure: inhibition (%)

- CCCCCCCCCCCCCC1CC(=O)O1 (racemic): 25
- CCCCCCCCCCC[C@@H](C[C@@H]1OC(=O)[C@H]1CCCCCC)OC(=O)[C@H](CC(C)C)NC=O: 100
- CCCCCCCCCCC[C@@H](C[C@@H]1OC(=O)[C@H]1CCCCCC)OC(=O)[C@H](NC=O)[C@@H](C)CC: 86
- CCCCCCCCCCC[C@@H](C[C@@H]1OC(=O)[C@H]1CCCCCC)OC(=O)[C@@H](NC=O)[C@H](C)CC: 95
- CCCCCCCCCCC[C@@H](C[C@@H]1OC(=O)[C@H]1CCCCCC)OC(=O)[C@@H](NC=O)[C@@H](C)CC: 98
- CCCCCCCCCCC[C@@H](C[C@@H]1OC(=O)[C@H]1CCCCCC)OC(=O)[C@H](NC=O)[C@H](C)CC: 78
- CCCCCCCCCCC[C@@H](C[C@@H]1OC(=O)[C@H]1CCCCCC)OC(=O)[C@H](CC)NC=O: 99

###

Biological target: UniProt:Q6WQJ1
Sequence (whole entry): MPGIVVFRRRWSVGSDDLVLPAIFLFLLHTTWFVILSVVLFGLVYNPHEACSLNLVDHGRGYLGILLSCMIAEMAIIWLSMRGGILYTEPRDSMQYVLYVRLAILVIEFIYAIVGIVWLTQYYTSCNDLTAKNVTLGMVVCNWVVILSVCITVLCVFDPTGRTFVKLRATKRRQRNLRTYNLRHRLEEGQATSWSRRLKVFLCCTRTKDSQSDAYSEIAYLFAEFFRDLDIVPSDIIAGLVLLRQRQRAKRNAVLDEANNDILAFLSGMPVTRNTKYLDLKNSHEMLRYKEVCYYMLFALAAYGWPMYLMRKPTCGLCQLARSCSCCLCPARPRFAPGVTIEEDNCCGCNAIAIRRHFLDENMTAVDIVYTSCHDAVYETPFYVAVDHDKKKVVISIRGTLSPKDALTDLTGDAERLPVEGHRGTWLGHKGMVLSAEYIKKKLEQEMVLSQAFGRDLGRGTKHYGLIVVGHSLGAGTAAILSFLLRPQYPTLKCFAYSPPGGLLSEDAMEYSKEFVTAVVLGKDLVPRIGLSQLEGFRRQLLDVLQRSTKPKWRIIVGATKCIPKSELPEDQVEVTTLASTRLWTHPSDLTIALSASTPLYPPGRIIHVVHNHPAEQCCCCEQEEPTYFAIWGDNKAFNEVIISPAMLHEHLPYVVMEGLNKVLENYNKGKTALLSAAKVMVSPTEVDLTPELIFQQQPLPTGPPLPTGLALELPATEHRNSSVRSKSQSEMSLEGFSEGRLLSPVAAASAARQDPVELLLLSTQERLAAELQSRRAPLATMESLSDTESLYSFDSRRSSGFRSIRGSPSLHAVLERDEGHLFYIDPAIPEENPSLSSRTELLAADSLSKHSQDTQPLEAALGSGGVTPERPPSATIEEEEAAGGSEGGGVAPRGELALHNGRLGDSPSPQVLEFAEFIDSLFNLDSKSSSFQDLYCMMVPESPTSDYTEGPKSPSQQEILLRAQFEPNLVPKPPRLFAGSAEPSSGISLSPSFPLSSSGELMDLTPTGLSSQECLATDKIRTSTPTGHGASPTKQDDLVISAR
Experiment: Inhibition of mouse DAGLalpha expressed in HEK293T cell membrane using [14C]SAG substrate at 10 nM by scintillation counting based radio-TLC assay
Type: cell membranes
Settings: HEK-293T
The source made the active and inactive calls. The calls are words filed in the database; no cut-off is given here.
Outcome Measure: inhibition

- O=S(=O)(F)Cc1ccccc1 [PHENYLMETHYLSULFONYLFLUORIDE]: inactive
- O=C(N[C@H]1COC1=O)OCc1ccccc1: inactive
- O=C(Oc1ccc([N+](=O)[O-])cc1)N1CCN(Cc2cccc(Oc3ccccc3)c2)CC1: inactive
- NC(=O)c1cccc(-c2cccc(OC(=O)NC3CCCCC3)c2)c1: inactive
- CCCCCCCCCCC[C@@H](C[C@@H]1OC(=O)[C@H]1CCCCCC)OC(=O)[C@H](CC)NC=O: 50%
- CCCCCCCCCCC[C@@H](C[C@@H]1OC(=O)[C@H]1CCCCCC)OC(=O)[C@H](CC(C)C)NC=O: 55%
- O=C(Oc1ccc([N+](=O)[O-])cc1)N1CCC(C(O)(c2ccc3c(c2)OCO3)c2ccc3c(c2)OCO3)CC1: inactive
- CCCCCCCCCCC[C@@H](C[C@@H]1OC(=O)[C@H]1CCCCCC)OC(=O)[C@@H](NC=O)[C@H](C)CC: 60%
- CCCCCCCCCCC[C@@H](C[C@@H]1OC(=O)[C@H]1CCCCCC)OC(=O)[C@H](NC=O)[C@H](C)CC: 33%
- CCCCCCCCCCC[C@@H](C[C@@H]1OC(=O)[C@H]1CCCCCC)OC(=O)[C@H](NC=O)[C@@H](C)CC: 19%
- CCCCCCCCCCC[C@@H](C[C@@H]1OC(=O)[C@H]1CCCCCC)OC(=O)[C@@H](NC=O)[C@@H](C)CC: 69%
